Please go through the items and note down their T/C.
Test system: L1210 leukemia ip in BDF1 mice, survival T/C
MEASUREMENT_DESCRIPTION: NCI In Vivo Anticancer Drug Screen. Data for tumor model L1210 Leukemia (intraperitoneal) in B6D2F1 (BDF1) mice
CONDITIONS: endpoint: mean survival time; dose: 200.0 mg/kg/injection; schedule: Q04DX003 (ip); vehicle: Klucel (hydroxypropylcellulose) (HPC); higher = longer survival
Inconclusive results and toxic doses are left out.

Give T/C (L1210 leukemia ip in BDF1 mice, survival T/C) of the following compound: `CCOc1cccc(OCC)c1C`
94 % of control

Queued: `c1ccc(C2=NCN=C2c2ccccc2)cc1`
101 % of control

Next entry: `COc1ccccc1NC(=O)Nc1cc(C)ccc1C`
95 % of control

Now give it for `CCOC(=O)c1cnc2c(cnn2C(C)C)c1NN` too.
99 % of control

Another compound: `Cc1ccccc1NC(=O)NCC(=O)O`
98 % of control

Cool, now `ClC(Cl)(Cl)C(Cl)(Cl)c1ccc(C(Cl)(Cl)C(Cl)(Cl)Cl)cc1`
94 % of control

Another compound to look at: COC(=O)C1C=CCC2C(=O)C=C(C)C(=O)C12C (stereo not given)
100 % of control

Also `CN(C)C(=O)C1(c2ccc(Cl)cc2)CCN(CCCC(=O)c2ccc(F)cc2)CC1` ?
116 % of control

Record: `O=C(Nc1ccc([N+](=O)[O-])cc1Cl)Oc1ccc2ccccc2c1`
97 % of control

And `COc1ccc(Cl)cc1NC(=O)Nc1ccc(Cl)c(Cl)c1` ?
89 % of control

And the next one, COC1OC(C)C(OS(C)(=O)=O)C2OC(C)(C)OC12 (stereo not given) ?
107 % of control

Another compound: `COc1ccc(S(=O)(=O)NC(=O)NCCC=C(C)C)cc1`
97 % of control

Let us now turn to `Cc1cc(C)cc(OC(=O)Nc2ccccc2Cl)c1`
98 % of control

Try this compound next: `Cn1nc(N)c2cc(C(N)=O)c(N)nc21`
100 % of control

Next compound: CC1(C)C2CC3CC(C(=O)O)C(C(=O)O)CC3(C2)C1Br (stereo not given)
101 % of control

Would you mind doing `CCOC(=O)c1[nH]c(C)c(CCC(=O)O)c1C` as well?
98 % of control

Item: `CN(C)c1ccc(/C=C2\C=Cc3ccccc32)c(F)c1`
93 % of control

What about `O=C(NCCCl)Nn1c2ccccc2c2ccccc21` ?
98 % of control

Okay, and `O=[N+]([O-])c1c(Cl)cc(Cl)c([N+](=O)[O-])c1Cl` ?
90 % of control

Record: `CC(=O)Nc1ccc(NC(=S)Nc2ccc(NC(C)=O)cc2)cc1`
93 % of control

Item: `CCCCNC(=O)CC#N`
107 % of control

Again, but for `COc1ccc(OC(=O)Nc2ccc(Cl)c(Cl)c2)cc1`
95 % of control

Further, for `CCC(COC(C)=O)(COC(C)=O)[N+](=O)[O-]` ?
98 % of control

Next compound up: CCCCCC1CCC(O)CC1 (stereo not given)
111 % of control

Also, COc1ccc(OC2CCCCC2OS(C)(=O)=O)cc1 (stereo not given) please.
102 % of control

----------
Test system: L1210 leukemia ip in BDF1 mice, survival T/C
MEASUREMENT_DESCRIPTION: NCI In Vivo Anticancer Drug Screen. Data for tumor model L1210 Leukemia (intraperitoneal) in B6D2F1 (BDF1) mice
CONDITIONS: endpoint: mean survival time; dose: 400.0 mg/kg/injection; schedule: Q04DX003 (ip); vehicle: saline with Tween-80; higher = longer survival
Protocol: The antitumor activity of compounds was measured in mice bearing transplantable tumors. Survival or tumor size were measured and the results are expressed as the measurement made in the treated group (T) divided by the measurement made in the vehicle treated control group (C). The tumor model used in this assay is L1210 Leukemia (intraperitoneal) in B6D2F1 (BDF1) mice
Inconclusive results and toxic doses are left out.
For each entry below, report its T/C value.

I am curious: what T/C value has been reported for `O=C(O)Cn1c(C(F)(F)F)nc2nc(Cl)c(Cl)nc21` ?
97 % of control

Next compound up: C1CC2C3CCC(C3)C2C1 (centres undefined)
97 % of control

Input CCOC(=O)c1ccc(OC2CCCCO2)c(OC2CCCCO2)c1 (centres undefined)
98 % of control

Another compound to check: `COc1c(C)c(C)c(OC)c(CC(=O)O)c1C`
93 % of control

# iterate: `Oc1ccc(C=Nc2ccccc2N=Cc2ccc(O)c(O)c2)cc1O`
91 % of control

Then OC1C(O)C(O)C(O)C(O)C1O (centres undefined) ?
98 % of control

Another compound to look at: `COC(=O)c1[nH]nc(-c2ccccc2)c1N`
90 % of control

Next: `COC(OC)c1[nH]c(=S)[nH]c(=O)c1Cc1ccc(-c2ccccc2)cc1`
95 % of control

Then this compound: CC(=O)NC(O)C(Cl)(Cl)Cl (centres undefined)
110 % of control

CCCC(O)C1CCCCC1O (centres undefined) ?
103 % of control

Continue with `Cc1cc(C(=O)CCl)c(CN2C(=O)c3ccccc3C2=O)c(=O)n1C`
110 % of control

Next compound up: CC12CCC(CC1)C2C(=O)O (centres undefined)
102 % of control

Also need `Cc1cc(C)cc(C(O)(c2cc(C)cc(C)c2)c2cc(C)cc(C)c2)c1` , thanks.
94 % of control

And for `O=C(CN1CCOCC1)Nc1ccc(S(=O)(=O)c2ccc(Cl)cc2)cc1` ?
95 % of control

Also CNC(CCc1ccccc1)C(=O)O (centres undefined) ?
99 % of control

Now this one: `O=C(c1ccc(F)cc1)c1ccc(Cl)cc1Cl`
101 % of control

Ok, now CC(=O)C(C(N)=O)C(c1ccc2c(c1)OCO2)C(C(C)=O)C(=O)NCc1ccccc1 (centres undefined)
91 % of control

Query `COc1ccc([N+](=O)[O-])cc1NS(=O)(=O)c1c(C)cc(C)cc1C` next
93 % of control

Next compound up: CC(C)CCOC(c1ccc2c(c1)OCO2)C(C)Br (centres undefined)
94 % of control

Subsequent entry: `COc1cc(C(C)=O)cc(OC)c1OC`
98 % of control

Next up: CC1(Br)Cc2ccccc2C1=O (centres undefined)
103 % of control

Another compound to look at: O=[N+]([O-])CC(OCCCc1ccccc1)C(Cl)(Cl)Cl (centres undefined)
91 % of control

Follow-up entry: `CC1=NN(c2cccc(Cl)c2)C(=O)C1`
94 % of control

Moving on to the next compound: `C=CCCCCCCCCC(=O)Cl`
95 % of control

----------
Test system: L1210 leukemia ip in BDF1 mice, survival T/C
MEASUREMENT_DESCRIPTION: NCI In Vivo Anticancer Drug Screen. Data for tumor model L1210 Leukemia (intraperitoneal) in B6D2F1 (BDF1) mice
CONDITIONS: endpoint: mean survival time; dose: 12.5 mg/kg/injection; schedule: Q01DX009 (ip); vehicle: Klucel (hydroxypropylcellulose) (HPC); higher = longer survival
Toxic doses and inconclusive results are not listed.
ASSAY_METRIC: T/C

Give the measured T/C of `CN(C)C(=O)C1(c2ccc(Cl)cc2)CCN(CCCC(=O)c2ccc(F)cc2)CC1` .
94 % of control

What do you get for NC(CSS(=O)(=O)O)=NC1CC2CCC1C2 (centres undefined) ?
95 % of control

Lookup `S=C1NCCCS1`
93 % of control

Next molecule up: COc1cccc(C2CCN(C)C2)c1 (centres undefined)
108 % of control

----------
Tested on: L1210 leukemia ip in BDF1 mice, survival T/C
MEASUREMENT_DESCRIPTION: NCI In Vivo Anticancer Drug Screen. Data for tumor model L1210 Leukemia (intraperitoneal) in B6D2F1 (BDF1) mice
CONDITIONS: endpoint: mean survival time; dose: 200.0 mg/kg/injection; schedule: Q01DX009 (ip); vehicle: saline; higher = longer survival
Inconclusive results and toxic doses are left out.
ASSAY_METRIC: T/C

Which T/C value belongs to `C#CC(C)(C)CC` ?
97 % of control

Try this compound too: `c1ccc(C2=NCC3(CCCC3)N=C2c2ccccc2)cc1`
91 % of control

# iterate: CC(=O)OC12C=CC(C(C)=C1)C1C(=O)C=CC(=O)C12 (centres undefined)
89 % of control

Another compound to look at: `Cc1ccc(/C(O)=C\C(=S)SS)cc1`
102 % of control

For `NCCc1cc(O)c(O)cc1O` then?
88 % of control

What about this compound? `Cc1cc(C)[nH]n1`
104 % of control

Do the same for OC1C(O)C(O)C(O)C(O)C1O (centres undefined) please
92 % of control

Field entry: `Fc1ccc(C(Cl)Cl)cc1`
99 % of control

How about `Cc1ccc(S(=O)(=O)Nc2ccc([N+](=O)[O-])cc2OS(=O)(=O)c2ccc(C)cc2)cc1` ?
101 % of control

Record: `CN(C)C(=O)Sc1cccnc1`
119 % of control

Quick one: `Cc1cc(C)[nH]c(=O)n1`
88 % of control

And `c1ccc2cc3cc4cc5ccccc5cc4cc3cc2c1` ?
101 % of control

Let us now turn to `NNC(=O)CCCCCC(=O)NN`
95 % of control

Try this compound next: `CC(C)SC=O`
93 % of control

One more compound: COC1CC(OC2OC(CO)C(O)C(O)C2O)/C(=C\C#N)C(O)C1OC (centres undefined)
101 % of control

Please do the same for O=C1/C(=C/c2ccco2)CCC2CC3(CCC12)OCCO3 (centres undefined) as well.
102 % of control

One more compound: `c1cc[n+](CC[n+]2ccccc2)cc1`
93 % of control

Now the same for CNC(=O)N1CC(C)OC(C)C1 (centres undefined)
92 % of control

Item: `CCN(CC)Cc1c(C)[nH]c2ccc(N(C)C)cc2c1=O`
92 % of control

Input `c1ccc(C([CH2][Hg][CH2]C(c2ccccc2)c2ccccc2)c2ccccc2)cc1`
96 % of control

Proceed to OC1C2CC3C(C2)C13 (centres undefined)
96 % of control

Subsequent entry: `CCN(C)CCN(C)CC`
104 % of control

# iterate: `CN(C)CCOC(=O)/C=C/c1ccccc1`
88 % of control

Also `Cc1ccc(S(=O)(=O)CC#CCOc2ccccc2)cc1` ?
92 % of control

Same thing, different compound: `CN(CO)c1nc(N(C)CO)nc(N(C)CO)n1`
86 % of control

Proceed to C=CCOC(=O)C(C)O (centres undefined)
98 % of control

Same question for `Nc1ccc(N=Nc2ccccc2)c(N)c1` please.
101 % of control

And then `O=C1/C(=C/c2ccc(Cl)cc2)CCc2ccccc21` , what is it?
96 % of control

# repeat for C#CC(C)(C)OCC(O)CCl (centres undefined)
89 % of control
